# System: UO-31 renal
# assay.text: NCI tumour cell line growth inhibition, 48 h
For each of the molecules below, state its GI50.

{"molecule": "COc1cc(/C=C2\\CN(C(=O)CCN3CCC(=NO)CC3)C/C(=C\\c3cc(OC)c(OC)c(OC)c3)C2=O)cc(OC)c1OC", "assayed.target": "UO-31 renal", "GI50": "1110 nM"}
{"molecule": "CCCCNC(=O)Oc1ccc(/C(=C(/CC)Cc2ccccc2)c2ccc(OCCN3CCCCCC3)cc2)cc1", "assayed.target": "UO-31 renal", "GI50": "18900 nM"}

I need GI50 for every entry listed below, if you could help.
1. CC[C@]1(O)C[C@@H]2CN(CCc3c([nH]c4ccccc34)[C@@](C(=O)OC)(c3cc4c(cc3OC)N(C)[C@H]3[C@@](O)(C(N)=O)[C@H](O)[C@]5(CC)[C@@H]6C[C@@H]6CN6CC[C@]43[C@@H]65)C2)C1
2. CC[C@H](Nc1nc(N)nc(C2CC2)c1C#N)c1nc2cccc(NCc3ccc(C(=O)NO)cc3)c2c(=O)n1-c1ccccc1
3. COc1ccc(NC(=O)n2nc(/C=C\c3ccc(O)c(OC)c3)cc2/C=C\c2ccc(O)c(OC)c2)cc1
4. O=C(Nc1ccc(Br)cc1)Nc1nn(C(=O)Nc2ccc(Br)cc2)c2ccccc12
5. CNCCNc1nc2ccccc2c2c(=O)c3cc(OC)ccc3sc12

1: 548 nM; 2: 1260 nM; 3: 1520 nM; 4: > 100000 nM; 5: 1290 nM

I need GI50 for every entry listed below, if you could help.
1. COc1nc(C)cc2c(=O)n(-c3ccccc3)n(CC(O)CN3CCN(c4ccc(Cl)cc4)CC3)c(=O)c12 (stereo not given)
2. C/C(=C(/c1ccc(O)cc1)c1ccc(Cl)cc1)c1ccccc1
3. COC(=O)c1cc(-c2ccc(OC)cc2)[nH]c1N/N=C/c1c(Cl)cccc1Cl

1. 46600 nM
2. 509 nM
3. 287 nM

The measured values listed here are drawn from PubChem BioAssay (NCI).
